Just for reference, ChEMBL document CHEMBL1132100 is where these values come from.

# Tested on: Rattus norvegicus
# assay.summary: Tested for the anticonvulsant activity administered 60 min orally before MES induction
# Type: functional
# measurement.setup: po, 1 h
ED50: recorded values
Enter your answer as a number in mg/kg; do not include the unit.

Observe how each entry below is paired with its result.
C[C@@H](NCc1ccc(OCCCc2ccccc2)cc1)C(N)=O    12.6
CNC(=O)[C@H](CO)NCc1ccc(OCc2cccc(F)c2)cc1    13
C[C@H](NCc1ccc(OCCCCCc2ccccc2)cc1)C(N)=O    12.5

Lookup: Given the entry CS(=O)(=O)O.C[C@H](NCc1ccc(OCc2cccc(F)c2)cc1)C(N)=O [SAFINAMIDE MESYLATE] , report its measured ED50.
Found: 8

Lookup: Given the entry C[C@H](NCc1ccc(OCCCCc2ccccc2)cc1)C(N)=O , report its measured ED50.
Found: 12.4

Lookup: Given the entry C[C@@H](NCc1ccc(OCc2cccc(F)c2)cc1)C(N)=O , report its measured ED50.
Found: 7.2

* * *

# target: Sigma non-opioid intracellular receptor 1 (Rattus norvegicus)
# Sequence (Q9R0C9 whole entry): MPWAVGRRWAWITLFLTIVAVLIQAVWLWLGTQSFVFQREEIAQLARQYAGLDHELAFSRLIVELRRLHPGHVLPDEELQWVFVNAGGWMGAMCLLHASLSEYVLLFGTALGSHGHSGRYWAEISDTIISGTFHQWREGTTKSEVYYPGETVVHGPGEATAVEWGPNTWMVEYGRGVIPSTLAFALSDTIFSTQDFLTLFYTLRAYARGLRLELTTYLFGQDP
# assay.summary: Inhibition of [3H]pentazocine binding to Opioid receptor sigma 1
IC50: recorded values
Enter your answer as a number in µM; do not include the unit.

Observe how each entry below is paired with its result.
C[C@H](NCc1ccc(OCCCc2ccccc2)cc1)C(N)=O    0.0193
C[C@@H](NCc1ccc(NCc2cccc(F)c2)cc1)C(N)=O    0.28
CNC(=O)[C@H](CO)NCc1ccc(OCc2cccc(F)c2)cc1    0.588
C[C@@H](NCc1ccc(OCc2cccc(F)c2)cc1)C(N)=O    0.28

Lookup: Given the entry C[C@H](NCc1ccc(OCCCCc2ccccc2)cc1)C(N)=O , report its measured IC50.
Found: 0.55

Lookup: Given the entry C[C@@H](NCc1ccc(OCCCc2ccccc2)cc1)C(N)=O , report its measured IC50.
Found: 0.28

Lookup: Given the entry CS(=O)(=O)O.C[C@H](NCc1ccc(OCc2cccc(F)c2)cc1)C(N)=O [SAFINAMIDE MESYLATE] , report its measured IC50.
Found: 0.0197

Lookup: Given the entry CNC(=O)[C@@H](CO)NCc1ccc(OCc2cccc(F)c2)cc1 , report its measured IC50.
Found: 6.6

Lookup: Given the entry C[C@H](NCc1ccc(NCc2cccc(F)c2)cc1)C(N)=O , report its measured IC50.
Found: 0.0344

* * *

# target: Sodium channel alpha subunits; brain (Types I, II, III) (Rattus norvegicus, UniProt P04775+P04774+P08104)
# assay.summary: Inhibition of [3H]batrachotoxin binding to rat brain sodium channel
IC50: recorded values
Enter your answer as a number in µM; do not include the unit.

Observe how each entry below is paired with its result.
C[C@@H](NCc1ccc(NCc2cccc(F)c2)cc1)C(N)=O    11.3
C[C@@H](NCc1ccc(OCc2cccc(F)c2)cc1)C(N)=O    8.5

Moving on to the next molecule.
Lookup: Given the entry C[C@H](NCc1ccc(OCCCc2ccccc2)cc1)C(N)=O , report its measured IC50.
Found: 13.2

* * *

ED50: recorded values
# Test system: Rattus norvegicus
# assay.summary: Tested for the anticonvulsant activity administered 60 min orally before MES induction
# Type: functional
# measurement.setup: po, 1 h

Observe how each entry below is paired with its result.
COc1ccc(CN[C@@H](C)C(N)=O)cc1    > 100 mg/kg
Nc1nnc(-c2cccc(Cl)c2Cl)c(N)n1    2.2 mg/kg
C[C@H](NCc1ccc(NCc2cccc(F)c2)cc1)C(N)=O    6.6 mg/kg

Lookup: Given the entry COc1ccc2c(c1)[C@]13CCCC[C@@H]1[C@H](C2)N(C)CC3 , report its measured ED50.
Found: 12.9 mg/kg
